assay: Plasma pharmacokinetics of CX-5461 (HPLC-MS/MS, non-compartmental); format: in vivo, human; details: human, plasma, intravenous, 50 mg/m2, 50 mg/m2; Time 2; individual patients; read-out: Day 1 CX-5461 plasma concentration
Quantity name: concentration at 2 h (ng/mL)

- Compound: "Cc1cnc(CNC(=O)c2c(=O)c3ccc(N4CCCN(C)CC4)nc3n3c2sc2ccccc23)cn1 [CX-5461]"
  Quantity name: "concentration at 2 h"
  Val: 96.5

* * *

test: Plasma pharmacokinetics of CX-5461 (HPLC-MS/MS, non-compartmental); assay type: in vivo, human; details: human, plasma, intravenous, 475 mg/m2, B: 475 mg/m2; Time 4; individual patients; read-out: Day 1 CX-5461 plasma concentration

- Chemical structure: "Cc1cnc(CNC(=O)c2c(=O)c3ccc(N4CCCN(C)CC4)nc3n3c2sc2ccccc23)cn1"
  concentration at 4 h: "424 ng/mL"

* * *

Experiment: Plasma pharmacokinetics of CX-5461 (HPLC-MS/MS, non-compartmental)
Type: in vivo, human
Details: human, plasma, intravenous, 250 mg/m2, 250 mg/m2; Time 24; individual patients; read-out: Day 1 CX-5461 plasma concentration
Method: PK was assessed on all patients in the escalation phase. Venous blood samples were collected on treatment days 1, 8, and 15 (where applicable), and plasma CX-5461 was analyzed with HPLC-MS/MS (schedule details in Supplementary Table 3). PK parameters were calculated with non-compartmental methods. […] The protocol was amended to allow submission of a ctDNA sample and in a further amendment, a mandatory skin biopsy (pre-treatment and cycle 1 day 15) to study phototoxic effects. […]
Quantity name: concentration at 24 h (ng/mL)

- Chemical structure: "Cc1cnc(CNC(=O)c2c(=O)c3ccc(N4CCCN(C)CC4)nc3n3c2sc2ccccc23)cn1"
  Quantity name: "concentration at 24 h"
  Val: 197

* * *

experiment: Plasma pharmacokinetics of CX-5461 (HPLC-MS/MS, non-compartmental); format: in vivo, human; conditions: human, plasma, intravenous, 475 mg/m2, B: 475 mg/m2; Time 1; individual patients; read-out: Day 1 CX-5461 plasma concentration
Quantity name: concentration at 1 h (ng/mL)

- Compound: "Cc1cnc(CNC(=O)c2c(=O)c3ccc(N4CCCN(C)CC4)nc3n3c2sc2ccccc23)cn1 [CX-5461]"
  Quantity name: "concentration at 1 h"
  Val: 698

* * *

assay: Plasma pharmacokinetics of CX-5461 (HPLC-MS/MS, non-compartmental); assay type: in vivo, human; conditions: human, plasma, intravenous, 50 mg/m2, 50 mg/m2; Time 72; individual patients; read-out: Day 1 CX-5461 plasma concentration
Quantity name: concentration at 72 h (ng/mL)

- Compound: "Cc1cnc(CNC(=O)c2c(=O)c3ccc(N4CCCN(C)CC4)nc3n3c2sc2ccccc23)cn1 [CX-5461]"
  Val: 13.3

* * *

experiment: Plasma pharmacokinetics of CX-5461 (HPLC-MS/MS, non-compartmental); format: in vivo, human; settings: human, plasma, intravenous, 475 mg/m2, B: 475 mg/m2; Time 48; individual patients; read-out: Day 1 CX-5461 plasma concentration
Quantity name: concentration at 48 h (ng/mL)

- Chemical structure: "Cc1cnc(CNC(=O)c2c(=O)c3ccc(N4CCCN(C)CC4)nc3n3c2sc2ccccc23)cn1"
  Quantity name: "concentration at 48 h"
  Unit annotation: "ng/mL"
  Val: 336

* * *

assay: Plasma pharmacokinetics of CX-5461 (HPLC-MS/MS, non-compartmental); format: in vivo, human; conditions: human, plasma, intravenous, 325 mg/m2, Dose level B: 325 (mg/m2); one patient per datapoint; read-out: Day 1 Cmax
Quantity name: Cmax (ng/mL)

- Chemical structure: "Cc1cnc(CNC(=O)c2c(=O)c3ccc(N4CCCN(C)CC4)nc3n3c2sc2ccccc23)cn1"
  Unit annotation: "ng/mL"
  Val: 822

* * *

experiment: Plasma pharmacokinetics of CX-5461 (HPLC-MS/MS, non-compartmental); type: in vivo, human; conditions: human, plasma, intravenous, 250 mg/m2, 250 mg/m2; Time 48; individual patients; read-out: Day 1 CX-5461 plasma concentration
Quantity name: concentration at 48 h (ng/mL)

- Molecule: "Cc1cnc(CNC(=O)c2c(=O)c3ccc(N4CCCN(C)CC4)nc3n3c2sc2ccccc23)cn1 [CX-5461]"
  Quantity name: "concentration at 48 h"
  Val: 106

* * *

experiment: Plasma pharmacokinetics of CX-5461 (HPLC-MS/MS, non-compartmental); format: in vivo, human; conditions: human, plasma, intravenous, 50 mg/m2, 50 mg/m2; Time 0.5; individual patients; read-out: Day 1 CX-5461 plasma concentration

- Chemical structure: "Cc1cnc(CNC(=O)c2c(=O)c3ccc(N4CCCN(C)CC4)nc3n3c2sc2ccccc23)cn1"
  concentration at 0.5 h: "155 ng/mL"

* * *

assay: Plasma pharmacokinetics of CX-5461 (HPLC-MS/MS, non-compartmental); assay type: in vivo, human; settings: human, plasma, intravenous, 650 mg/m2, Dose level 650 (mg/m2); one patient per datapoint; read-out: Day 1 AUC

- Molecule: "Cc1cnc(CNC(=O)c2c(=O)c3ccc(N4CCCN(C)CC4)nc3n3c2sc2ccccc23)cn1 [CX-5461]"
  Unit annotation: "ng·h/mL"
  AUC: 26800

* * *

Test: Plasma pharmacokinetics of CX-5461 (HPLC-MS/MS, non-compartmental)
Type: in vivo, human
Conditions: human, plasma, intravenous, 650 mg/m2, 650 mg/m2; Time 2; individual patients; read-out: Day 1 CX-5461 plasma concentration
Description: PK was assessed on all patients in the escalation phase. Venous blood samples were collected on treatment days 1, 8, and 15 (where applicable), and plasma CX-5461 was analyzed with HPLC-MS/MS (schedule details in Supplementary Table 3). PK parameters were calculated with non-compartmental methods. […] The protocol was amended to allow submission of a ctDNA sample and in a further amendment, a mandatory skin biopsy (pre-treatment and cycle 1 day 15) to study phototoxic effects. […]
Quantity name: concentration at 2 h

- Compound: "Cc1cnc(CNC(=O)c2c(=O)c3ccc(N4CCCN(C)CC4)nc3n3c2sc2ccccc23)cn1 [CX-5461]"
  Val: "712 ng/mL"

* * *

Experiment: Plasma pharmacokinetics of CX-5461 (HPLC-MS/MS, non-compartmental)
Assay type: in vivo, human
Conditions: human, plasma, intravenous, 150 mg/m2, 150 mg/m2; Time 0.5; individual patients; read-out: Day 1 CX-5461 plasma concentration
Description: PK was assessed on all patients in the escalation phase. Venous blood samples were collected on treatment days 1, 8, and 15 (where applicable), and plasma CX-5461 was analyzed with HPLC-MS/MS (schedule details in Supplementary Table 3). PK parameters were calculated with non-compartmental methods. […] The protocol was amended to allow submission of a ctDNA sample and in a further amendment, a mandatory skin biopsy (pre-treatment and cycle 1 day 15) to study phototoxic effects. […]

- Chemical structure: "Cc1cnc(CNC(=O)c2c(=O)c3ccc(N4CCCN(C)CC4)nc3n3c2sc2ccccc23)cn1"
  Unit annotation: "µg/mL"
  concentration at 0.5 h: 0.32

* * *

assay: Plasma pharmacokinetics of CX-5461 (HPLC-MS/MS, non-compartmental); type: in vivo, human; settings: human, plasma, intravenous, 475 mg/m2, 475 mg/m2; Time 0.5; individual patients; read-out: Day 1 CX-5461 plasma concentration
Quantity name: concentration at 0.5 h (ng/mL)

- Compound: "Cc1cnc(CNC(=O)c2c(=O)c3ccc(N4CCCN(C)CC4)nc3n3c2sc2ccccc23)cn1 [CX-5461]"
  Unit annotation: "ng/mL"
  Val: 475

* * *

assay: Plasma pharmacokinetics of CX-5461 (HPLC-MS/MS, non-compartmental); type: in vivo, human; conditions: human, plasma, intravenous, 200 mg/m2, 200 mg/m2; Time 24; individual patients; read-out: Day 1 CX-5461 plasma concentration

- Chemical structure: "Cc1cnc(CNC(=O)c2c(=O)c3ccc(N4CCCN(C)CC4)nc3n3c2sc2ccccc23)cn1"
  concentration at 24 h (ng/mL): 72.8

* * *

assay: Plasma pharmacokinetics of CX-5461 (HPLC-MS/MS, non-compartmental); type: in vivo, human; conditions: human, plasma, intravenous, 150 mg/m2, 150 mg/m2; Time 6; individual patients; read-out: Day 1 CX-5461 plasma concentration

- Chemical structure: "Cc1cnc(CNC(=O)c2c(=O)c3ccc(N4CCCN(C)CC4)nc3n3c2sc2ccccc23)cn1"
  concentration at 6 h: "179 ng/mL"

* * *

experiment: Plasma pharmacokinetics of CX-5461 (HPLC-MS/MS, non-compartmental); type: in vivo, human; conditions: human, plasma, intravenous, 325 mg/m2, B: 325 mg/m2; Time 48; individual patients; read-out: Day 1 CX-5461 plasma concentration

- Chemical structure: "Cc1cnc(CNC(=O)c2c(=O)c3ccc(N4CCCN(C)CC4)nc3n3c2sc2ccccc23)cn1"
  Unit annotation: "ng/mL"
  concentration at 48 h: 203
